Kindly find below pKd information for Vascular endothelial growth factor receptor 2 (Homo sapiens, UniProt P35968) taken from the literature.
Worth noting: pKd values are minus log10 of concentrations stated in mol/L.

Input: Using the record for Cc1c(C(=O)Nc2cc(F)c(Oc3ccnc(N)c3)cc2F)c(=O)n(-c2ccccc2)n1C , state its measured pKd.
Output: 5.82

Input: Using the record for CC(=O)Nc1nccc(Oc2ccc(NC(=O)c3c(C)n(C)n(-c4ccccc4)c3=O)cc2)c1Cl , state its measured pKd.
Output: 5.96

Input: Using the record for COc1cc(OC)c(F)c(N2CCN(C(C)C)Cc3c2ccc2ncc(-c4cn[nH]c4)nc32)c1 , state its measured pKd.
Output: 7.15

Input: Using the record for Cc1c(C(=O)Nc2ccc(Oc3ccnc(N)c3)cc2Cl)c(=O)n(-c2ccccc2)n1C , state its measured pKd.
Output: 4.72

Input: Using the record for CCN1CCN(Cc2ccc(NC(=O)c3cccc(-c4ccc5nc(NC(=O)C6CC6)sc5n4)c3)cc2C(F)(F)F)CC1 , state its measured pKd.
Output: 7.24

Input: Using the record for CC(=O)Nc1cc(Oc2cc(F)c(NC(=O)c3c(C)n(C)n(-c4ccccc4)c3=O)cc2F)ccn1 , state its measured pKd.
Output: 6.80

Input: Using the record for Cc1c(C(=O)Nc2ccc(Oc3ccnc(N)c3)c(F)c2F)c(=O)n(-c2ccccc2)n1C , state its measured pKd.
Output: 5.48

Input: Using the record for COc1cc(OC)c(F)c(N2CCN(C(C)C)Cc3c2ccc2ncc(-c4cnn(C)c4)nc32)c1 , state its measured pKd.
Output: 7.34

Input: Using the record for COc1cc(OC)c(F)c(N2CCN(C(C)C)Cc3c2ccc2ncc(-c4cn[nH]c4)cc32)c1 , state its measured pKd.
Output: 6.56

Input: Using the record for Cc1c(C(=O)Nc2ccc(Oc3ccnc(N)c3Cl)c(F)c2)c(=O)n(-c2ccccc2)n1C , state its measured pKd.
Output: 7.64

Input: Using the record for Cc1c(C(=O)Nc2ccc(Oc3ccnc(NC(=O)C4CC4)c3)c(F)c2)c(=O)n(-c2ccccc2)n1C , state its measured pKd.
Output: 8.20

Input: Using the record for Cc1c(C(=O)Nc2cc(F)c(Oc3ccnc(N)c3Cl)cc2F)c(=O)n(-c2ccccc2)n1C , state its measured pKd.
Output: 6.47

Input: Using the record for Cc1c(C(=O)Nc2ccc(Oc3ccnc(N)c3)cn2)c(=O)n(-c2ccccc2)n1C , state its measured pKd.
Output: 5.74

Input: Using the record for COc1cc(O)cc(N2CCN(C(C)C)Cc3c2ccc2ncc(-c4cnn(C)c4)nc32)c1F , state its measured pKd.
Output: 6.91

Input: Using the record for Cc1c(C(=O)Nc2ccc(Oc3ccnc(C(N)=O)c3)c(F)c2)c(=O)n(-c2ccccc2)n1C , state its measured pKd.
Output: 6.35

Input: Using the record for CCn1cc(-c2cnc3ccc(N4CCN(C(C)C)Cc5c(OC)cc(OC)cc54)cc3n2)cn1 , state its measured pKd.
Output: 5.77

Input: Using the record for COc1cc(OC)c2c(c1)N(c1ccc3ncc(-c4cnn(C)c4)nc3c1)CCCN(C(C)C)C2 , state its measured pKd.
Output: 6.04

Input: Using the record for Cc1c(C(=O)Nc2ccc(Oc3ccnc(N)c3Cl)cc2)c(=O)n(-c2ccccc2)n1C , state its measured pKd.
Output: 7.37
